- Test system: U2OS
- protocol-description: Incucyte cell viability with U2OS; also: unitless GR value; below 1 slowed growth and below 0 cell loss
- Assay type: toxicity, cell-based
- condition-description: human, 18 h, 10 µM, compound concentration 10 uM, replicate number 2
Classification field: criterion met = Growth Rate at or over 0.8; criterion not met = Growth Rate under 0.8.

Prompt: API: above_or_equal(metric=Growth Rate, cutoff=0.8) for item Cn1ncc(-c2nc(N[C@H]3CC[C@H](N)CC3)ncc2Cl)c1CC1CC1 [BTX-A51]
Response: criterion met

Prompt: Request: CN(C)[C@H]1CC[C@H](Nc2ncc3ncnc(Nc4ccc(F)c(Cl)c4)c3n2)CC1
Response: criterion not met

Prompt: Request: COc1ncc2cc(C(=O)Nc3cc(C(=O)NCc4cccc(Cl)c4)ccc3Cl)c(=O)[nH]c2n1
Response: criterion met

Prompt: Request: CCOC(=O)c1ccc(N2C(=O)C(O)=C(C(=O)c3ccc(OC)cc3)C2c2ccc(F)cc2)cc1 (centres undefined)
Response: criterion met

Prompt: Request: O=C(N[C@H](Cc1ccccc1)C(=O)O)c1cccc(OCc2cccnc2)c1.O=CO
Response: criterion met

Prompt: Request: CC(C)n1cnc2c(Nc3cccc(Cl)c3)nc(N[C@H]3CCCC[C@@H]3N)nc21
Response: criterion not met

Prompt: Request: COc1cc(Cl)c(C(=O)N[C@@H](CN[C@H]2CC[C@@H](N)CC2)Cc2ccc(C#N)cc2)cc1-c1ccc(CN[C@H](C)c2ccc(C)cc2)o1
Response: criterion not met

Prompt: Request: O=C(Nc1cccc(C(F)(F)F)c1)c1cc(Cl)ccc1O
Response: criterion not met
